# system_name: GST-tagged SIK3 (Homo sapiens (Human))
pIC50: −log10 of the molar value.
reported_metric: pIC50

COc1cc(-c2c3c(C#N)cc(-c4cnn(CC5CCO5)c4)cc3nn2C)cc(OC(F)F)c1C(=O)NCC1(F)CC1 (stereo not drawn)	8.00

[P] COc1cc(-c2c3c(C#N)cc(-c4cnn(CC5CCOC5)c4)cc3nn2C)cc(OC(F)F)c1C(=O)NCC1(F)CC1 (stereo not drawn)
[Q] COc1cc(-c2c3c(OC(F)F)cc(-c4cnn(C)c4)cc3nn2C)cc2c1C(=O)NC[C@@H]2C (single isomer, unassigned)
Ask: Returns the identifier with the smallest measured pIC50 among P and Q . When you have decided, please share the label of that item.
Reply: Q

---

The following molecules have recorded IC50 on GST-tagged SIK1 (Homo sapiens (Human), UniProt P57059).
Sequence (P57059 whole entry): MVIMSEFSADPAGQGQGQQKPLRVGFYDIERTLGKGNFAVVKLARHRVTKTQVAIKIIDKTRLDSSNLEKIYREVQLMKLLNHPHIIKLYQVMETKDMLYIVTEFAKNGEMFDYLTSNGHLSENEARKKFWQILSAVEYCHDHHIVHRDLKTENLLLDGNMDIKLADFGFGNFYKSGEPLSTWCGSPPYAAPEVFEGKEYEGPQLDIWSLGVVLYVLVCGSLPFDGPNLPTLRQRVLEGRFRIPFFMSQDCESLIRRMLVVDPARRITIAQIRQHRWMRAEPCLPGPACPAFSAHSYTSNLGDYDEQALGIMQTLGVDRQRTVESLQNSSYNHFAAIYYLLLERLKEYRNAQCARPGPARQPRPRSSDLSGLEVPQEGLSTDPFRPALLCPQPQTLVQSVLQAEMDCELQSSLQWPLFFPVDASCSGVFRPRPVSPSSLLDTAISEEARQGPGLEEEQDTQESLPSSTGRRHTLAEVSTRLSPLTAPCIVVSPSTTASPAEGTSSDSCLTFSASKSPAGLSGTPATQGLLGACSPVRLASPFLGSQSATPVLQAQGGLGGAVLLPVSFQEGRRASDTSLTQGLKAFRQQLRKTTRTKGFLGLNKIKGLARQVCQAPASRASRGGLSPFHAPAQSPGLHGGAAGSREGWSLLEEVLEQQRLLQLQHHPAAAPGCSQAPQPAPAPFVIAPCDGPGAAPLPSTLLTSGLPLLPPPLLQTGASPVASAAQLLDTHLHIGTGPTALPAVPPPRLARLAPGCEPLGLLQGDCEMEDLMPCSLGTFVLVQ
reported_metric: IC50 (µM)

Solved cases (4 shown):
COc1cc(-n2cnc3cc(-c4cnn(C)c4)ccc32)cc(OC)c1C(=O)NCC(F)F [Comparative Example 2, reference compound]	1
COCCn1cc(-c2cc(C#N)c3c(-c4cc(OC(F)F)c5c(c4)[C@@H](C)CNC5=O)n(C)nc3c2)cn1 (single isomer, unassigned)	0.0195
COc1cc(-c2c3c(C#N)cc(-c4cnn(C)c4)cc3nn2C)cc(OC(F)F)c1C(=O)N1CC(OC(F)F)C1	0.0162
COc1cc(-c2c3c(C#N)cc(-c4cnn(CC5(O)CCC5)c4)cc3nn2C)cc(OC(F)F)c1C(=O)NCC1(F)CC1	0.0136

[I] COc1cc(-c2c3c(C#N)cc(-c4cnn(CC(=O)N(C)C)c4)cc3nn2C)cc(OC(F)F)c1C(=O)NCC1(F)CC1
[II] COc1cc(-c2c3c(OCC(F)(F)F)cc(-c4cnn(C)c4)cc3nn2C)cc(OC(F)F)c1C(N)=O
Ask: Which numeric IC50 is bigger, that of I or that of II ? When you have decided, please share the label of that item.
Reply: I

---

The following compounds have recorded IC50 on GST-tagged SIK1 (Homo sapiens (Human)).
reported_metric: IC50 (nM)

Solved cases (5 shown):
COc1cc(-c2c3c(OCc4ccnnc4)cc(-c4cnn(C)c4)cc3nn2C)cc(OC(F)F)c1C(=O)N1CC(O)(C(F)(F)F)C1 [Example 51]	8.6
CC1CNC(=O)c2c(OC(F)F)cc(-c3c4c(C#N)cc(-c5cnn(C)c5)cc4nn3C)cc21 (centres unmarked) [Example 160]	7.5
COc1cc(-c2c3c(OC(F)F)cc(-c4cnn(C)c4)cc3nn2C)cc2c1C(=O)NC[C@@H]2C (single isomer, unassigned) [Example 164]	7.1
COc1cc(-c2c3c(C#N)cc(-c4cnn(CC(F)F)c4)cc3nn2C)cc(OC(F)F)c1C(=O)N[C@@H]1CC1(F)F [Example 115]	9.4
CCn1cc(-c2cc(C#N)c3c(-c4cc(OC)c(C(=O)N5CC(O)(C(F)(F)F)C5)c(OC(F)F)c4)n(C)nc3c2)cn1 [Example 15]	9.2

[1] COc1cc(-c2c3c(C#N)cc(-c4cnn(CC5(O)CC5)c4)cc3nn2C)cc(OC(F)F)c1C(=O)NCC1(F)CC1 [Example 83]
[2] COc1cc(-c2c3c(C#N)cc(-c4cnn(CCC(C)(C)O)c4)cc3nn2C)cc(OC(F)F)c1C(N)=O [Example 142]
[3] COc1cc(-c2c3c(OCc4ccccc4)cc(-c4cnn(C)c4)cc3nn2C)cc(OC(F)F)c1C(=O)N[C@@H]1C[C@@H]1F [Example 6]
Ask: # rank_down: sort by IC50, max first Answer by naming the labels in the order asked.
Reply: 2, 1, 3
(2: 16.2 nM, 1: 10.5 nM, 3: 2.8 nM)

[A] COc1cc(-c2c3c(C#N)cc(-c4cnn(CC(=O)N5CCCC5)c4)cc3nn2C)cc(OC(F)F)c1C(=O)NCC1(F)CC1 [Example 100]
[B] COc1cc(-c2c3c(C#N)cc(-c4cnn(CCS(C)(=O)=O)c4)cc3nn2C)cc(OC(F)F)c1C(=O)NCC1(F)CC1 [Example 54]
[C] COc1cc(-c2cnc3cc(-c4cnn(C)c4)ccn23)cc2c1C(=O)N(C1CC1)CC2 [Comparative Example 3, reference compound]
[D] COc1cc(-c2c3ccc(OCCN4CCOCC4)cc3nn2C)cc(OC(F)F)c1C(=O)NC1CC1 [Comparative Example 7, reference compound]
Ask: With regard to IC50, arrange the entries in ascending order, please. Answer by naming the labels in the order asked.
Reply: B, A, C, D
(B: 10.1 nM, A: 15.5 nM, C: 398 nM, D: 7600 nM)

[a] COc1cc(-c2c3c(C(F)F)cc(-c4cnn([C@@H]5CCOC5)c4)cc3nn2C)cc(OC(F)F)c1C(N)=O [Example 159]
[b] COc1cc(-c2c3c(C#N)cc(-c4cnn(CC(C)C)c4)cc3nn2C)cc2c1C(=O)NC[C@@H]2C (single isomer, unassigned) [Example 169]
[c] COc1cc(-c2c3c(OC)cc(-c4cnn(C)c4)cc3nn2C)cc(OC(F)F)c1C(=O)N1CC(O)(C(F)(F)F)C1 [Example 13]
Ask: With regard to IC50, arrange the entries in ascending order, please. Answer by naming the labels in the order asked.
Reply: c, b, a

[I] C[C@H]1CNC(=O)c2c(OC(F)F)cc(-c3c4c(C#N)cc(-c5cnn(C)c5)cc4nn3C)cc21 (single isomer, unassigned) [Example 181]
[II] COc1cc(-c2cnn(C)c2)cc2nn(C)c(-c3cc(OC(F)F)c4c(c3)[C@@H](C)CNC4=O)c12 (single isomer, unassigned) [Example 166]
Ask: Returns the identifier with the smallest measured IC50 among I and II . When you have decided, please share the label of that item.
Reply: II

---

The following compounds have recorded pIC50 on GST-tagged SIK3 (Homo sapiens (Human), UniProt Q9Y2K2).
Sequence (Q9Y2K2 whole entry): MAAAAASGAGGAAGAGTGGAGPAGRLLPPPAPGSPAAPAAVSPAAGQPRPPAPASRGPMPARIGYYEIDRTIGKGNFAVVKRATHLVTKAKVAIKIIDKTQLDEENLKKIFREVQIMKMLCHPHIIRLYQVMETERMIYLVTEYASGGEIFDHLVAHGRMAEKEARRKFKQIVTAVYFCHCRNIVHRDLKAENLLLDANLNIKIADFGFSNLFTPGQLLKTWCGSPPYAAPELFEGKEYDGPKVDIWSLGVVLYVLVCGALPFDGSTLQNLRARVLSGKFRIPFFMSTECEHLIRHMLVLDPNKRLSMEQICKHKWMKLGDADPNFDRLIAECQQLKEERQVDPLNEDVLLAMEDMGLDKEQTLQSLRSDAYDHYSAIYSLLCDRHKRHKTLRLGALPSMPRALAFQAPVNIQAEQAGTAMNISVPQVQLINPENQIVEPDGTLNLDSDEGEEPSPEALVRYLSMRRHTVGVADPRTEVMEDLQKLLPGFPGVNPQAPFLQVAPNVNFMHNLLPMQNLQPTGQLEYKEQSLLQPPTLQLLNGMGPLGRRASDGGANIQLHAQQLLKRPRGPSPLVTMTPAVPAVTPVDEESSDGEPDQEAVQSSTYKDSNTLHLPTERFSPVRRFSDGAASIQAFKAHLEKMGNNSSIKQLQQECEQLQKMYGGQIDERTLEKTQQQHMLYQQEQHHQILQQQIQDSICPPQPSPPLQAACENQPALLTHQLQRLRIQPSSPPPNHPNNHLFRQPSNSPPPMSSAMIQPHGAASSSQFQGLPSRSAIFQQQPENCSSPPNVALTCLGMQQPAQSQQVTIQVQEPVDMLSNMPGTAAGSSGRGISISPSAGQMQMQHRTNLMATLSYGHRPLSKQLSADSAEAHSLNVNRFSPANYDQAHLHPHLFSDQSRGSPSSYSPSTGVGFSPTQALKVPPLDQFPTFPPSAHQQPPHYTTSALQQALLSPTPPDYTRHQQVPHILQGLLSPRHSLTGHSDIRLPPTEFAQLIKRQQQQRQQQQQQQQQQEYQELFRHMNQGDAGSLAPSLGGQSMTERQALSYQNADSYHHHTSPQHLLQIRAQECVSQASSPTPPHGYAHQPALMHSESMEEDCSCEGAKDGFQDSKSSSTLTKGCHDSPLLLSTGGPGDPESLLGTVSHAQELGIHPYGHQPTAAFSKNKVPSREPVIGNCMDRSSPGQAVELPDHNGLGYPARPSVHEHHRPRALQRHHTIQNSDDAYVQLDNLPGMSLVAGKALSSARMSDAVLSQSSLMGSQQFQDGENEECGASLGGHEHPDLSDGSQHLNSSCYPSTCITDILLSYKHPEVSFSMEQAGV
pIC50: −log10 of the molar value.
reported_metric: pIC50

Solved cases (6 shown):
COCCn1cc(-c2cc(OC)c3c(-c4cc(OC(F)F)c5c(c4)[C@@H](C)CNC5=O)n(C)nc3c2)cn1 (single isomer, unassigned) [Example 177]	8.00
CCn1cc(-c2cc(C#N)c3c(-c4cc(OC)c(C(=O)N[C@@H]5C[C@@H]5F)c(OC(F)F)c4)n(C)nc3c2)cn1	8.15
COc1cc(-c2c3c(C(F)F)cc(-c4cnn([C@@H]5CCOC5)c4)cc3nn2C)cc(OC(F)F)c1C(N)=O	8.34
COc1cc(-c2c3c(C#N)cc(-c4cnn(CC(C)C)c4)cc3nn2C)cc2c1C(=O)NC[C@@H]2C (single isomer, unassigned)	8.47
COCCn1cc(-c2cc(OC(F)F)c3c(-c4cc(OC)c(C(N)=O)c(OC(F)F)c4)n(C)nc3c2)cn1	8.02
COc1cc(-c2c3c(C#N)cc(-c4cnn(CCC5(O)CCC5)c4)cc3nn2C)cc(OC(F)F)c1C(N)=O	8.33

[A] COc1cc(-c2c3c(OCCO)cc(-c4cnn(C)c4)cc3nn2C)cc(OC(F)F)c1C(N)=O
[B] COc1cc(-c2cnn(C)c2)cc2nn(C)c(-c3cc(OC(F)F)c4c(c3)C(C)CNC4=O)c12 (centres unmarked)
Ask: Returns the identifier with the smallest measured pIC50 among A and B . When you have decided, please share the label of that item.
Reply: A

[A] COc1cc(-c2c3c(OCC4CCC4)cc(-c4cnn(C)c4)cc3nn2C)cc(OC(F)F)c1C(=O)N1CC(O)(C(F)(F)F)C1
[B] COc1cc(-c2c3c(OCC(F)F)cc(-c4cnn(C)c4)cc3nn2C)cc(OC(F)F)c1C(=O)N1CC(O)(C(F)(F)F)C1
[C] COc1cc(-c2c3ccc(N4CCN(C)CC4)cc3nn2C)cc2c1C(=O)N(CC(F)(F)F)CC2 [Comparative Example 8, reference compound]
Ask: With regard to pIC50, arrange the entries in ascending order, please. Answer by naming the labels in the order asked.
Reply: C, A, B

[I] COc1cc(-c2cnc3cc(-c4cnn(C)c4)ccn23)cc2c1C(=O)N(C1CC1)CC2 [Comparative Example 3, reference compound]
[II] CCn1cc(-c2cc(C(F)F)c3c(-c4cc(OC)c(C(N)=O)c(OC(F)F)c4)n(C)nc3c2)cn1
Ask: Which numeric pIC50 is bigger, that of I or that of II ? When you have decided, please share the label of that item.
Reply: II
(II: 8.52, I: 8.19)

[a] COc1cc(-c2c3c(C#N)cc(-c4cnn(CC(C)(C)O)c4)cc3nn2C)cc(OC(F)F)c1C(=O)N1CC(O)(C(F)(F)F)C1
[b] COc1cc(-c2cnn3cc(OCCN4CCOCC4)ccc23)cc2c1C(=O)N(CC(F)(F)F)CC2 [Comparative Example 6, reference compound]
[c] COc1cc(-c2c3c(OC)cc(-c4cnn(C)c4)cc3nn2C)cc(OC(F)F)c1C(N)=O
Ask: # rank_down: sort by pIC50, max first Answer by naming the labels in the order asked.
Reply: a, c, b
